# TESTED ON: T1, A1 domain of vWF (UniProt P04275 1261-1468, limits assumed)
# T1 construct: domain: A1 domain; also called vWF A1 domain
# PROTOCOL: BIAcore initial binding rate, vWF A1 domain on sensor-chip, stored sample
ENDPOINT LABEL: % activity after 8 wks at 37° C. (initial binding rate against time zero) (%)

Past entries and their recorded results:
SEQ ID NO: 2 S63G (VHH) VHH: EVQLVESGGGLVQPGGSLRLSCAASGRTFSYNPMGWFRQAPGKGRELVAAISRTGGSTYYPDGVEGRFTISRDNAKRMVYLQMNSLRAEDTAVYYCAAAGVRAEDGRVRTLPSEYTFWGQGTQVTVSS: 83.8
SEQ ID NO: 2 D105A (VHH) VHH: EVQLVESGGGLVQPGGSLRLSCAASGRTFSYNPMGWFRQAPGKGRELVAAISRTGGSTYYPDSVEGRFTISRDNAKRMVYLQMNSLRAEDTAVYYCAAAGVRAEAGRVRTLPSEYTFWGQGTQVTVSS: 98.7
SEQ ID NO: 2 D62A (VHH) VHH: EVQLVESGGGLVQPGGSLRLSCAASGRTFSYNPMGWFRQAPGKGRELVAAISRTGGSTYYPASVEGRFTISRDNAKRMVYLQMNSLRAEDTAVYYCAAAGVRAEDGRVRTLPSEYTFWGQGTQVTVSS: 87.4

a = SEQ ID NO: 2 D105Q (VHH) VHH: EVQLVESGGGLVQPGGSLRLSCAASGRTFSYNPMGWFRQAPGKGRELVAAISRTGGSTYYPDSVEGRFTISRDNAKRMVYLQMNSLRAEDTAVYYCAAAGVRAEQGRVRTLPSEYTFWGQGTQVTVSS
b = SEQ ID NO: 2 D105N (VHH) VHH: EVQLVESGGGLVQPGGSLRLSCAASGRTFSYNPMGWFRQAPGKGRELVAAISRTGGSTYYPDSVEGRFTISRDNAKRMVYLQMNSLRAEDTAVYYCAAAGVRAENGRVRTLPSEYTFWGQGTQVTVSS
Sort a and b by % activity after 8 wks at 37° C. (initial binding rate against time zero) descending and give the first. Could you answer with the label of the item you picked?
a
(a: 90.8%, b: 32.7%)
